I'd be grateful if you could share measured Tmax for these entries.
assay: Pharmacokinetic study, plasma and sciatic nerve after single oral gavage; assay type: in vivo, NSG mice; settings: both sexes, NOD.Cg-Prkdcscid Il2rgtm1Wjl/SzJ (NSG), mouse, plasma, po; read-out: time of maximum plasma concentration
Answers are plain numbers, in h.

>>> val("CS(=O)(=O)N1CCN(Cc2cc3nc(-c4cccc5[nH]ncc45)nc(N4CCOCC4)c3s2)CC1")
1

Consider the additional molecule presented here.
Reported Tmax for Cc1nc(Nc2n[nH]c3c2CN(C(=O)N[C@H](CN(C)C)c2ccccc2)C3(C)C)c2sccc2n1 : what is it?
2
